Consider the following compounds; for each one, report its Potency.
# TEST SYSTEM: thrombin (Homo sapiens, UniProt P00734)
# METHOD DESCRIPTION: anti-thrombin activity; clotting assay (coagulation time with fibrinogen as substrate)
# Format: biochemical
# Set-up: 100 μl of human-thrombin prepared at 10 NIH units/ml in aforesaid buffer
# SETTINGS: calculated using the definition that HV-1 (54-65) potency is 1
*1 amine or outer side, *2 acyl side, *3 side chain or, on linkers, in order; H or OH if unused. Where a SMILES comes first, the peptide text is derived from it. [ ]: non-standard residue; d: D form. sY = N[C@@H](Cc1ccc(OS(=O)(=O)O)cc1)C(=O)O; Suc = O=C(CCC(=O)[*:2])[*:1]; βAla = NCCC(=O)O
Give bare numbers.

>  <COMPOUND>
CC[C@H](C)[C@H](NC(=O)[C@@H]1CCCN1C(=O)[C@H](CCC(=O)O)NC(=O)[C@H](Cc1ccccc1)NC(=O)CCC(=O)O)C(=O)N1CCC[C@H]1C(=O)N[C@@H](CCC(=O)O)C(=O)N[C@@H](Cc1ccc(OS(=O)(=O)O)cc1)C(=O)N[C@@H](Cc1ccc(OS(=O)(=O)O)cc1)C(=O)NCCC(=O)O [Sulfated form of (K)] (Suc-FEPIPE[sY][sY][βAla]-OH)

>  <Potency>
1.02

$$$$
>  <COMPOUND>
CC[C@H](C)[C@H](NC(=O)[C@@H]1CCCN1C(=O)[C@H](CCC(=O)O)NC(=O)[C@H](Cc1ccccc1)NC(=O)CCC(=O)O)C(=O)N1CCC[C@H]1C(=O)N[C@@H](CCC(=O)O)C(=O)N[C@@H](Cc1ccc(OS(=O)(=O)O)cc1)C(=O)N[C@@H](Cc1ccc(OS(=O)(=O)O)cc1)C(=O)N[C@@H](CC(C)C)C(=O)N[C@H](CCC(=O)O)C(=O)O [Sulfated form of (T)] (Suc-FEPIPE[sY][sY]L[dE]-OH)

>  <Potency>
8.32

$$$$

Data request, read-out Potency, for CC[C@H](C)[C@H](NC(=O)[C@@H]1CCCN1C(=O)[C@H](CCC(=O)O)NC(=O)[C@H](Cc1ccccc1)NC(=O)CCC(=O)O)C(=O)N1CCC[C@H]1C(=O)N[C@@H](CCC(=O)O)C(=O)N[C@@H](Cc1ccc(O)cc1)C(=O)N[C@@H](Cc1ccc(O)cc1)C(N)=O [(J)] (Suc-FEPIPEYY-NH2) 0.07

###

# TEST SYSTEM: thrombin (Homo sapiens, UniProt P00734)
# METHOD DESCRIPTION: anti-thrombin activity; clotting assay (coagulation time with fibrinogen as substrate)
# Type: biochemical
# Set-up: 100 μl of human-thrombin prepared at 10 NIH units/ml in aforesaid buffer
# SETTINGS: concentration corresponding to 50 thrombin units; human-thrombin 10 NIH units/ml, human-fibrinogen 6 mg/ml; read-out: 50% Inhibition Concentration (converted)
*1 amine or outer side, *2 acyl side, *3 side chain or, on linkers, in order; H or OH if unused. Where a SMILES comes first, the peptide text is derived from it. [ ]: non-standard residue; d: D form. The star is where a group is joined. sY = N[C@@H](Cc1ccc(OS(=O)(=O)O)cc1)C(=O)O; X2 = CC(C)C[C@H](N*)C(=O)NP(=O)(O)O; Asu = N[C@@H](CCCCCC(=O)O)C(=O)O; Suc = O=C(CCC(=O)[*:2])[*:1]; Ava = NCCCCC(=O)O; βAla = NCCC(=O)O
Could you please mark yes (1) for values of IC50 below 20 µM and no (0) for values at or above it?

Before answering, review these 3 worked examples.
>  <COMPOUND>
CCNC(=O)[C@H](CC(C)C)NC(=O)[C@H](Cc1ccc(O)cc1)NC(=O)[C@H](Cc1ccc(O)cc1)NC(=O)[C@H](CCC(=O)O)NC(=O)[C@@H]1CCCN1C(=O)[C@@H](NC(=O)[C@@H]1CCCN1C(=O)[C@H](CCC(=O)O)NC(=O)[C@H](Cc1ccccc1)NC(=O)CCC(=O)O)[C@@H](C)CC [(R)] (Suc-FEPIPEYYL-NHEt)

>  <LABEL>
no (0)

$$$$
>  <COMPOUND>
CC[C@H](C)[C@H](NC(=O)[C@@H]1CCCN1C(=O)[C@H](CCC(=O)O)NC(=O)[C@H](Cc1ccccc1)NC(=O)[C@H](CC(=O)O)NC(=O)CNC(=O)CCC(=O)O)C(=O)N1CCC[C@H]1C(=O)N[C@@H](CCC(=O)O)C(=O)N[C@@H](Cc1ccc(O)cc1)C(=O)N[C@@H](Cc1ccc(O)cc1)C(=O)N[C@@H](CC(C)C)C(=O)N[C@@H](CCC(N)=O)C(=O)O [(C)] (Suc-GDFEPIPEYYLQ-OH)

>  <LABEL>
yes (1)

$$$$
>  <COMPOUND>
CC[C@H](C)[C@H](NC(=O)[C@@H]1CCCN1C(=O)[C@H](CCC(=O)O)NC(=O)[C@H](Cc1ccccc1)NC(=O)CCC(=O)O)C(=O)N1CCC[C@H]1C(=O)N[C@@H](CCC(=O)O)C(=O)N[C@@H](Cc1ccc(O)cc1)C(=O)N[C@@H](Cc1ccc(O)cc1)C(=O)NCCCCC(=O)O [(L)] (Suc-FEPIPEYY[Ava]-OH)

>  <LABEL>
yes (1)

$$$$

Regarding CC[C@H](C)[C@H](NC(=O)[C@@H]1CCCN1C(=O)[C@H](CCC(=O)O)NC(=O)[C@H](Cc1ccccc1)NC(=O)CCC(=O)O)C(=O)N1CCC[C@H]1C(=O)N[C@@H](CCC(=O)O)C(=O)N[C@@H](Cc1ccc(O)cc1)C(=O)N[C@@H](Cc1ccc(O)cc1)C(=O)NCCC(=O)O [(K)] (Suc-FEPIPEYY[βAla]-OH) , kindly confirm whether its IC50 is beneath 20 µM. no (0)

Same lookup for CC[C@H](C)[C@H](NC(=O)[C@@H]1CCCN1C(=O)[C@H](CCC(=O)O)NC(=O)[C@H](Cc1ccccc1)NC(=O)CCC(=O)O)C(=O)N1CCC[C@H]1C(=O)N[C@@H](CCC(=O)O)C(=O)N[C@@H](Cc1ccc(O)cc1)C(=O)N[C@@H](Cc1ccc(O)cc1)C(=O)N[C@@H](CC(C)C)C(=O)NP(=O)(O)O [(Y)] (Suc-FEPIPEYY-X2) , please. no (0)

Same lookup for CC[C@H](C)[C@H](NC(=O)[C@@H]1CCCN1C(=O)[C@H](CCC(=O)O)NC(=O)[C@H](Cc1ccccc1)NC(=O)CCC(=O)O)C(=O)N1CCC[C@H]1C(=O)N[C@@H](CCC(=O)O)C(=O)N[C@@H](Cc1ccc(OS(=O)(=O)O)cc1)C(=O)N[C@@H](Cc1ccc(OS(=O)(=O)O)cc1)C(=O)N[C@@H](CC(C)C)C(=O)N[C@@H](CCCCCC(N)=O)C(N)=O [Sulfated form of (X)] (Suc-FEPIPE[sY][sY]L[Asu](NH2)-NH2) , please. yes (1)
